- studySystem: human B1R (bradykinin receptor 1) (Homo sapiens)
- Construct: expressed in transfected cells; host or cells: CHO K1 cells
- Sequence (P46663 whole entry): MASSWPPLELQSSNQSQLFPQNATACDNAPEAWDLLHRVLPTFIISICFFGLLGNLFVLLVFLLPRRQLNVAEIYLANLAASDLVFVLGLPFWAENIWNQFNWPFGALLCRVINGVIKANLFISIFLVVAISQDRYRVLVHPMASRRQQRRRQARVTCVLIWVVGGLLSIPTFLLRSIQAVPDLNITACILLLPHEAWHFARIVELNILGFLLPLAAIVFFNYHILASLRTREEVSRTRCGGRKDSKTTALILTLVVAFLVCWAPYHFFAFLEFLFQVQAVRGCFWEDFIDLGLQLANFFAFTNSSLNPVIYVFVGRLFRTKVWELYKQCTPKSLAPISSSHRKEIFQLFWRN
- experimentSummary: FLIPR Ca2+ assay (Fluo-4) on CHO K1 cells stably transfected with the human B1R gene (hB1R cells): % inhibition at 10 μM / IC50, agonist Lys-Des-Arg9-bradykinin
- Type: cell-based
- studyConditions: CHO-K1, human B1R
reportedProperty: inhibition at 10 µM (%)
Use % as the unit, but write only the number.

> print(dat)
                                   compound     reportedproperty  val
1  O=C(c1ccc2c(c1)[C@H](NS(=O)(=O)c1ccccc1F)CC2)N1CCC2(CCN(c3ccncc3)CC2)C1  inhibition at 10 µM  100
2  CC1(C)CC(NC(=O)c2cc(F)ccc2Cl)c2cc(C(=O)N3CCC4(CC3)CCN(c3ccncc3)CC4)ccc21 (stereo not shown)  inhibition at 10 µM  100
3  Cc1cc(OC(F)(F)F)ccc1C(=O)N[C@@H]1CCc2ccc(C(=O)N3CCC4(CC3)CCN(c3ccncc3)C4)cc21  inhibition at 10 µM   29
4  Cc1cccc(C)c1C(=O)NC1CCc2ccc(C(=O)N3CCC4(CCN(c5ccncc5)CC4)C3)cc21 (stereo not shown)  inhibition at 10 µM  100
5  O=C(N[C@@H]1CCCc2cc(F)c(C(=O)N3CCC4(CC3)CCN(c3ccncc3)C4)cc21)c1ccccc1Cl  inhibition at 10 µM   99

Q) Item under review: CC(C)CC(=O)N[C@@H]1CCc2ccc(C(=O)N3CCC4(CCN(c5ccncc5)CC4)C3)cc21 . Reported inhibition at 10 µM?
A) 100

Q) Item under review: Cc1ccc(F)c(C(=O)NC2CCc3ccc(C(=O)N4CCC5(CCN(c6ccncc6)CC5)C4)cc32)c1Cl (stereo not shown) . Reported inhibition at 10 µM?
A) 99

Source of measurements: patent US8455475B2
